I'd be grateful if you could share measured GI50 for these entries.
system: HCT-15; assay: NCI tumour cell line growth inhibition, 48 h
Numbers only, in µM.

Each compound below has a reported value. Please supply its GI50.
1. Cn1cccc1/C=C/c1cc(Br)c(/C=C/c2cccn2C)cc1Br
2. CC(C)c1cccc(=O)c(O)c1
3. CCN1C(=O)N(C)C(O)c2c1nc1ccccn1c2=O (stereo unspecified)

OUT:
8.75
1.54
32.2

----------
tested on: CAKI-1; assay: NCI tumour cell line growth inhibition, 48 h
Active and inactive are the calls of the source. No stated cut-off is given here; in the data, active = GI50 up to about 1.1 µM and inactive = higher.
Valid outcomes are listed here; reply with one: Y (active), N (inactive)

Solved entries (count: 5):
O=C(NCc1cccs1)OC1CC2CCC1C2 (centres undefined)    N
NNC(=O)/C(=C/c1cccc([N+](=O)[O-])c1)NC(=O)c1ccccc1    N
CC(=O)/C(=C/n1ccc(=O)[nH]c1=S)C(=O)Nc1ccccc1C    N
CC(CS(=O)(=O)Cc1ccccc1)C(N)=O (centres undefined)    N
CC(C)C[C@H](NC(=O)[C@H](Cc1cccc2ccccc12)NS(=O)(=O)c1cccc2cccnc12)B(O)O    Y

IN: What outcome does the record of this test show for "Cc1cc2c(cc1C)[n+]([O-])c(C(=O)C/C(=N/OCCCc1ccccc1)C(=O)Nc1cc(Cl)ccc1Cl)c(C)[n+]2[O-]" ?
OUT: N

IN: Test call for this compound, please: COc1cc(C2CC(C)(O)Oc3cc4c(cc32)OCO4)cc(OC)c1OC (centres undefined)
OUT: Y

IN: Query: recorded result category for "CC1(C)CC[C@]2(C)[C@@H](O)C[C@]3(C)C(=CC[C@@H]4[C@@]5(C)CC[C@H](O)C(C)(C)[C@@H]5CC[C@]43C)[C@@H]2C1" in this test
OUT: N

IN: # lookup: test call for CC(=O)OCC1OC(n2c3c(cc(C#N)c2=S)CCC3)C(OC(C)=O)C(OC(C)=O)C1OC(C)=O (centres undefined)
OUT: N

----------
Please provide measured GI50 for the entries that follow.
tested on: Hs-578T; assay: NCI tumour cell line growth inhibition, 48 h
The source made the active and inactive calls. No stated cut-off is given here; in the data, active = GI50 up to about 1.1 µM and inactive = higher.

Example cases with answers are listed next.
CSc1ccccc1P(c1ccccc1SC)c1ccccc1SC    98.2 µM (inactive)
CC(=O)N1CC(=O)N2C(=O)/C(=C/c3ccc(Cl)cc3)N=C12    30.9 µM (inactive)

Look at each compound and report its GI50.
1. COc1ccc(C2=Nn3c(nnc3-c3ccccc3)S/C2=C\c2ccc(-c3ccc([N+](=O)[O-])cc3)o2)cc1
2. COCC1OCCN1C (configuration not stated)
3. O=C(/C=C1\Nc2ncccc2N=C1CC(=O)c1ccccc1)c1ccccc1

OUT:
33.7 µM (inactive)
> 100 µM (inactive)
15.6 µM (inactive)

I have 2 compounds here; please give me GI50 for each one.
1. Cc1ccc(/N=N/N(C)C(C)C(O)Cc2ccccc2)cc1 (configuration not stated)
2. CCN(CC)CCN1C=CC(C)C(C(=O)O)C1C(N)=O (configuration not stated)

OUT:
1: 41.9 µM (inactive); 2: > 100 µM (inactive)

----------
test system: CCRF-CEM; experiment: NCI tumour cell line growth inhibition, 48 h
Activity calls are given as the source filed them. Rule as the data show it: active = GI50 up to about 1.1 µM and inactive = higher.
Your response should consist of one outcome taken from true = active, false = inactive

IN: Which result was noted for this compound in the test: "O=C1c2cc3c(cc2CC12Cc1cc4c(cc1C2=O)CCCC4)CCCC3"
OUT: false

IN: Called result for "Cc1cc(Br)cc(C)c1NC(=O)C(=O)CC(=O)c1sc(-n2nc(-c3ccccc3)cc2-c2ccccc2)nc1C"
OUT: false

IN: Which outcome did this test record for the compound COC(=O)C1=C(O)C(C(=O)OC)[C@@]2(O)[C@@H](C(=O)OC)[C@H](C)C[C@@H]1[C@@H]2C(=O)OC (some centres not stated) ?
OUT: false

----------
test system: HOP-62; test: NCI tumour cell line growth inhibition, 48 h
The source made the active and inactive calls. Rule as the data show it: active = GI50 up to about 1.1 µM and inactive = higher.
Parameter: GI50

Examples with their reported GI50 follow.
CCc1cccc(C)c1NC(=O)C(=O)CC(=O)c1ccc(Cl)s1    > 100 µM (inactive)
O=C1CCC(c2ccccc2)=NN1c1nc2ccccc2s1    36.9 µM (inactive)
CCCCCCCC(=O)O[C@H]1[C@H]2[C@@H](CC1(C)C)C(=O)[C@]13O[C@H]1C(=O)[C@]1(CO1)[C@]23C    17.5 µM (inactive)

Quick batch: GI50 for everything below.
1. O=Cc1ccc(OC[C@H]2COC(=O)N2)cc1
2. COc1cccc(C[C@H]2COC(=O)[C@]2(O)Cc2cccc(OC)c2)c1

OUT:
1. > 100 µM (inactive)
2. > 100 µM (inactive)

----------
system: K562; test: NCI tumour cell line growth inhibition, 48 h
Active and inactive are the calls of the source. No stated cut-off is given here; in the data, active = GI50 up to about 1.1 µM and inactive = higher.
Parameter: GI50

Example results:
Cn1cccc1/C=C/c1cc(Br)c(/C=C/c2cccn2C)cc1Br    16.7 µM (inactive)
O=C(O)C/C=C/CC(=O)O    67.1 µM (inactive)
COc1ccccc1NC(=O)C(=O)C(C#N)CC(C)(C)C=O (configuration not stated)    > 100 µM (inactive)
NCC(O)CNC(=O)c1ccc(-c2ccc(-c3ccc(C(=O)NCC(O)CN)cc3)o2)cc1 (configuration not stated)    > 100 µM (inactive)
Fc1ccc(OCc2nc3cc(C(F)(F)F)ccc3nc2-c2ccccc2)cc1    3.06 µM (inactive)

Count: 4. Required value per item: GI50.
1. CCOC(=N)CC(=O)Nc1ccccc1
2. CCOc1ccc(C2c3[nH]c4ccccc4c3CCN2C(=O)c2cccs2)cc1 (configuration not stated)
3. CCn1c(=O)c2c3ccc(OC)cc3[nH]c2c2ccc(OC)cc21
4. CCO[C@@H]1OC(=O)[C@](C)(C(C)=O)[C@@H]1C

OUT:
1. 22.1 µM (inactive)
2. 2.34 µM (inactive)
3. 25.7 µM (inactive)
4. 44.2 µM (inactive)

----------
test system: ACHN; test: NCI tumour cell line growth inhibition, 48 h
Calls of active or inactive are those of the source. No stated cut-off is given here; in the data, active = GI50 up to about 1.1 µM and inactive = higher.
Provide the recorded GI50 for the entries that follow.

# annotated cases, reported GI50 shown
O=c1c2cc([N+](=O)[O-])cnc2sn1-c1ccc([N+](=O)[O-])cc1    71.3 µM (inactive)
Cc1ccc2nc(-c3ccccc3)c(N=O)n2c1    46.9 µM (inactive)
CC(C)(C)N(Cc1ccoc1)C(=O)/C=C\[S+]([O-])c1ccccc1 (stereo unspecified)    25.9 µM (inactive)

I'm hoping you can list GI50 for every compound here, please.
1. CCCCCCCCOC(=O)c1cc([N+](=O)[O-])c(Sc2[nH]cnc3ncnc2-3)c([N+](=O)[O-])c1
2. CN(C)CCS/C(=N\c1ccccc1)N1CCCCC1
3. CC(=O)NNC(=S)N/C=C1/C(=O)C=C(C)OC1=O

OUT:
1: 2.92 µM (inactive); 2: 16.5 µM (inactive); 3: > 100 µM (inactive)

----------
system: KM-20L2; assay: NCI tumour cell line growth inhibition, 48 h
The source made the active and inactive calls. No stated cut-off is given here; in the data, active = GI50 up to about 1.1 µM and inactive = higher.
Can you answer with just one of these options? y (active), n (inactive)

Recorded results for 6 compounds are shown here.
CC(C)[Si](OCC1CC(C#N)OC(C)(C)O1)(C(C)C)C(C)C (configuration not stated)    n
CCOC(=O)c1cc(C(=O)O)c(=O)n2c1[nH]c1ccccc12    n
COc1cccc2c1C(=O)c1c(O)c3c(c(O)c1C2=O)C[C@@](O)(C(=O)CO)C[C@@H]3OC1CC(N(C)C)C(O)C(C)O1 (some centres not stated)    y
N=C1N(c2ccccc2)C(=O)C23CCCC2C13N1CCOCC1 (configuration not stated)    n
C=C1CC[C@@H]2C(C)(C)C(O)CCC2(C)C1COc1ccc2ccc(=O)oc2c1 (some centres not stated)    n
COC(=O)c1cccc2c3ccccc3c3ccccc3c12    n

IN: For Cc1cn(C2C=CC(=O)C(C)O2)c(=O)[nH]c1=O (configuration not stated) , which call appears in the assay record?
OUT: n

IN: Entry Clc1cccc(C2SCc3nc4ccccc4n32)c1Cl (configuration not stated) : call = ?
OUT: n

IN: State the result this test recorded for COC1OC(CBr)C(OC(=O)c2ccccc2)C(OS(=O)(=O)c2ccc(C)cc2)C1Br (configuration not stated) .
OUT: n

IN: What did this assay record as the result for CCc1ccccc1NC(=O)C(=O)C(C#N)c1c(Cl)cccc1Cl (configuration not stated) ?
OUT: n

IN: Hey, what did the test say about "CCCCC(/C=N/NC(=N)N)CC.Cc1cc(O)c(C(C)C)cc1S(=O)(=O)O" ?
OUT: n

IN: Which outcome was assigned to "CC(C)(C)CC(C)(C)c1cc2c(O)c(c1)Cc1cc(C(C)(C)CC(C)(C)C)cc(c1O)Cc1cc(C(C)(C)CC(C)(C)C)cc(c1O)Cc1cc(C(C)(C)CC(C)(C)C)cc(c1O)C2" in this test?
OUT: n

IN: Which outcome did this test record for the compound "C1CCN(c2nc(=[N+]3CCCCC3)ss2)CC1" ?
OUT: n

IN: // outcome(item) with item = Cc1ccc(S(=O)(=O)OC(c2ccc(Cl)cc2Cl)C2OC(=O)c3ccccc32)cc1 (configuration not stated)
OUT: n

IN: Hey, what did the test say about "O=C1c2c(c3c4ccccc4n4c3c3c2c2ccccc2n3C/C=C\C4)C(=O)N1Cc1ccccc1" ?
OUT: n

IN: Per the assay record, what outcome was assigned to "S=C1NCCN1" ?
OUT: n
